# target.or.system: human orexin 2 receptor (Homo sapiens)
# Construct: expressed in transfected cells
# method: Calcium accumulation in cells (FLIPR), antagonism of orexin A, human orexin 2 receptor
# Assay type: cell-based
# test.context: measured at a concentration of 10 μM of compound; read-out: FLIPR hOx2R % inhibition
test.readout: inhibition at 10 µM (%)
Numbers only, in %.

For each of the compounds below, note its inhibition at 10 µM.
1. O=C1N(Cc2c[nH]c3ccccc23)CCC12CCN(c1nc3cc(Cl)ccc3o1)C2 (stereo not drawn)
2. Cc1cc(C)nc(N2CCC3(CC2)NCCN(Cc2nn(C)cc2-c2cccc(-n4nc(C)cc4C)c2)C3=O)n1
3. O=C1COCC2(CCN(c3cnc4ccccc4n3)CC2)N1Cc1cccc(-c2cccnc2)c1
4. Cc1nc(N2CCOCC2)cc(N2CCC3(CCN(Cc4c[nH]c5ccccc45)C3=O)C2)n1 (stereo not drawn)
5. CCc1cc(-c2nn(C)nc2CN2CCNC3(CCN(c4nc(C)cc(C)n4)CC3)C2=O)ccn1

1: 37; 2: 34; 3: 30; 4: 47; 5: 35

---

# target.or.system: human orexin 2 receptor (Homo sapiens, UniProt O43614)
# Construct: expressed in transfected cells
# Sequence (O43614 whole entry): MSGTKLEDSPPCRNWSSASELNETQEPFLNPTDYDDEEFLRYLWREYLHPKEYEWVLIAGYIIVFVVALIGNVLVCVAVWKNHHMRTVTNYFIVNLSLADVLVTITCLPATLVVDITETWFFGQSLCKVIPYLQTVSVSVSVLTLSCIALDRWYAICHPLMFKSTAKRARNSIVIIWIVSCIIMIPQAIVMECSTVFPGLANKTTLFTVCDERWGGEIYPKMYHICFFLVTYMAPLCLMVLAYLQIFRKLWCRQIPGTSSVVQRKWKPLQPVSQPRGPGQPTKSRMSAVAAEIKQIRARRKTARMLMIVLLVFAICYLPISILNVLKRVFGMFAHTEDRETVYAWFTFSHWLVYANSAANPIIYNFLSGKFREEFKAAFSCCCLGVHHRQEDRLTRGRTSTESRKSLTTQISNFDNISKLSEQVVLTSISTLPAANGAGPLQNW
# method: Calcium accumulation in cells (FLIPR), antagonism of orexin A, human orexin 2 receptor
# Assay type: cell-based
# test.context: calcium accumulation, antagonism of orexin A, Cheng-Prusoff corrected; read-out: FLIPR hOx2R Ki
test.readout: Ki (nM)
Answers are plain numbers, in nM.

Example cases with answers are listed next.
Cc1cc(C)nc(N2CCC3(CC2)NCCN(Cc2c[nH]c4ccc(F)cc24)C3=O)n1 :: 6
COCc1cccc(-c2oc(C)nc2CN2CCNC3(CCN(c4nc(C)cc(C#N)n4)CC3)C2=O)c1 :: 64
Cc1cc(C)nc(N2CCC3(CC2)NCCN(Cc2nn(C)cc2-c2cccc(N4CCOCC4)c2)C3=O)n1 :: 20

Reported Ki ( "COc1ccnc(N2CC[C@@]3(CCN(Cc4c[nH]c5ccccc45)C3=O)C2)n1" ) = 1260

---

# target.or.system: human orexin 1 receptor (Homo sapiens, UniProt O43613)
# Construct: expressed in transfected cells
# Sequence (O43613 whole entry): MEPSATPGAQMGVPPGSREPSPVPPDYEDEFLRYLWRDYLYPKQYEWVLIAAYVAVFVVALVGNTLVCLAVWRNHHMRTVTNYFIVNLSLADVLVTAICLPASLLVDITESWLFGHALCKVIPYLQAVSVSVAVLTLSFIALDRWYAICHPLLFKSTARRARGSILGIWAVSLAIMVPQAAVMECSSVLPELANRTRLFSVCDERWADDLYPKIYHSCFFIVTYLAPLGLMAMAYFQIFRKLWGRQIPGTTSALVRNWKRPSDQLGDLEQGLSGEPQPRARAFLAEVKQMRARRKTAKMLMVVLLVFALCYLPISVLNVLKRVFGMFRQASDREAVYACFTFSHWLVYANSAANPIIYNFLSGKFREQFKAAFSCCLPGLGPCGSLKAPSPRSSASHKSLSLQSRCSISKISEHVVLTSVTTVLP
# method: Calcium accumulation in cells (FLIPR), antagonism of orexin A, human orexin 1 receptor
# Assay type: cell-based
# test.context: measured at a concentration of 10 μM of compound; read-out: FLIPR hOx1R % inhibition
# Experimental: Calcium Accumulation in Cells (FLIPR): Cells expressing human orexin 1 or human orexin 2 receptors, were seeded at 8,000 cells/well in 384 well black-walled clear bottom, poly-D-lysine coated plates. […] On the day of the experiment, the cells seeded in black plates were treated with assay buffer containing the Ca^2+ sensitive fluorescent dye Fluo-4-AM (2 μM), and probenecid (0.1 mM). […] Fluorescence measurements were then continued every 1 S for 120 S followed by every 4 S for 240 S. […]
I'd be grateful if you could share measured inhibition at 10 µM for these entries.

Example cases with answers are listed next.
Cc1cc(C)nc(N2CCC3(CC2)NCN(Cc2c[nH]c4ccccc24)C3=O)n1 [Example 4.1] :: 12%
COc1cccc(-c2oc(C)nc2CN2CCNC3(CCN(c4nc(C)cc(C#N)n4)CC3)C2=O)c1 [Example 1.16] :: 35%
COCc1cccc(-c2ocnc2CN2CCNC3(CCN(c4nc(C)cc(C#N)n4)CC3)C2=O)c1 [Example 1.28] :: 33%

Moving on to another molecule below.
Form field, inhibition at 10 µM with human orexin 1 receptor (Homo sapiens, UniProt O43613), item COc1cccc(-c2cn(C)nc2CN2CCNC3(CCN(c4nc(C)cc(C)n4)CC3)C2=O)n1 [Example 1.54] : 15%
